Overview of recorded EC50 for various molecules
Measured on: mouse RORγ (Mus musculus)
Construct: mouse, NM_011281.2 and from Ile251 to Lys516; expressed in transfected cells; host or cells: CHO cells (transient co-transfection with pG5-Luc reporter)
Sequence (P51450 251-516): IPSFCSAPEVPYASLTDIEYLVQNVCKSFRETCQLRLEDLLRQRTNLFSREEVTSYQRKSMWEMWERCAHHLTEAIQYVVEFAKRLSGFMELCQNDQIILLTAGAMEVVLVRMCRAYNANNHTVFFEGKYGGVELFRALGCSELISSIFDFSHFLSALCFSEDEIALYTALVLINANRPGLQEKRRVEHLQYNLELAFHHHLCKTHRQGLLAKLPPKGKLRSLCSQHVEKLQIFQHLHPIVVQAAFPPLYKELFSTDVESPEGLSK
Assay summary: Luciferase reporter gene assay of inhibitory effect against RORγ transcriptional activity (GAL4-mRORγ plasmid in CHO cells)
Assay type: cell-based
Experimental conditions: read-out: LUC EC50 (μM) mRORg
Reported property: EC50

* CC(C)CCc1nnc(CCC(=O)N[C@H](C)c2ccccc2)n1C1CC1 [Example F-63] | > 3 µM
* Cc1ccc(NC(=O)C[C@H](CCC(=O)O)c2noc(-c3cc(CCC(C)(C)C)on3)c2C2CC2)c(C)c1 [Example E-32] | < 3 µM
* Cc1ccc(NC(=O)CCc2nnc(-c3ccc(CC(C)C)cc3)n2C2CC2)c(C)c1 [Example F-404] | < 3 µM
* Cc1c(Cl)cccc1NC(=O)CCc1nnc(CCOC(C)C)n1C1CC1 [Example F-218] | < 3 µM
* C=CCC(CC(=O)Nc1cccc(Cl)c1C)c1nnc(CCC(C)C)n1C1CC1 (racemic) [Example F-193] | < 3 µM
* CC(C)C(F)(F)c1cc(-c2onc([C@@H](CCC(=O)O)CC(=O)Nc3ccc(F)cc3Cl)c2C2CC2)no1 [Example E-61] | < 3 µM
* Cc1c(Cl)cccc1NC(=O)CC(CC(=O)O)c1nnc(CCCC(C)C)n1C1CC1 (racemic) [Example F-213] | > 3 µM
* Cc1ccc(NCc2nnc(CCC(=O)Nc3cccc(Cl)c3C)n2C2CC2)cc1 [Example F-180] | < 3 µM
* CCc1ccccc1CNC(=O)CCc1nnc(CCC(C)C)n1C1CC1 [Example F-125] | > 3 µM
* CC(C)CCc1nnc(CCC(=O)Nc2cnc3ccccn23)n1C1CC1 [Example F-134] | > 3 µM
* CCn1c(CCC(=O)NCc2cccc(C)c2)nnc1CCC1CCCCC1 [Example F-42] | > 3 µM
* Cc1ccc(NC(=O)C[C@H](CCC(=O)O)c2noc(-c3cc(C4CC(CC(C)(C)C)C4)on3)c2C2CC2)c(Cl)c1 (stereo partly shown) [Example E-17] | < 3 µM
* Cc1ccc(NC(=O)C[C@H](CC#N)c2nnc([C@H]3C[C@@H](CC(C)C)C3)n2C2CC2)c(C)c1 [Example F-465] | < 3 µM
* Cc1ccc(NC(=O)C[C@H](CCC(=O)O)c2noc(-c3cnc(CC(C)C)s3)c2C2CC2)c(Cl)c1 [Example E-41] | < 3 µM
* Cc1ccccc1NC(=O)CCc1nnc(CCC(C)C)n1C1CC1 [Example F-64] | > 3 µM
* Cc1c(Cl)cccc1NC(=O)CCc1nnc(CCC2CCCNC2)n1C1CC1 (racemic) [Example F-189] | > 3 µM
* CC(C)CCc1nnc(CCC(=O)Nc2nnc3ccccn23)n1C1CC1 [Example F-139] | > 3 µM
* Cc1ccc(NC(=O)C[C@H](CCC(=O)O)c2noc(-c3noc(CCC(C)C)c3Cl)c2C2CC2)c(Cl)c1 [Example E-10] | < 3 µM
* COc1cc(C(F)(F)F)ccc1CNC(=O)CCc1nnc(CCC(C)C)n1C1CC1 [Example F-263] | < 3 µM
* Cc1c(Cl)cccc1NC(=O)CCc1nnc(CCC2CCCCC2)n1C1CC1 [Example F-94] | < 3 µM
* CC(=O)N1C[C@H](C(=O)Nc2ccc(C)cc2C)[C@@H](c2nnc([C@H]3C[C@@H](OC(C)C)C3)n2C2CC2)C1 (racemic) [Example F-330] | > 3 µM
* Cc1ccc(NC(=O)CC(CC(C)C)c2nnc(CCCC(C)(C)C)n2C2CC2)c(C)c1 (racemic) [Example F-438] | < 3 µM
* Cc1ccc(NC(=O)CCc2nnc(CCC3CCCCC3)n2C2CC2(F)F)c(C)c1 (racemic) [Example F-211] | < 3 µM
* Cc1ccc(NC(=O)[C@H]2CCN(C)C[C@@H]2c2nnc(CCCC(C)(C)C)n2C2CC2)c(C)c1 (racemic) [Example F-395] | < 3 µM
* CNC(=O)[C@H]1CC[C@H](CCc2nnc(CCC(=O)Nc3cccc(Cl)c3C)n2C2CC2)CC1 [Example F-255] | > 3 µM
* CCn1c(CCC(=O)Nc2cccc(Cl)c2C)nnc1CCC(C)(C)C [Example F-53] | < 3 µM
* Cc1c(Cl)cccc1NC(=O)CC(CCCOCc1ccccc1)c1nnc(CCC(C)C)n1C1CC1 (racemic) [Example F-195] | < 3 µM
* CC(=O)N1C[C@H](C(=O)Nc2ccc(C)cc2C)[C@@H](c2nnc(-c3ccc(C(C)C)cc3)n2C2CC2)C1 (racemic) [Example F-319] | < 3 µM
* Cc1ccc(CNC(=O)CCc2nnc(CCC(C)C)n2C2CC2)cc1 [Example F-61] | > 3 µM
* CCn1c(CCCC(C)(C)C)nnc1[C@@H]1[C@@H](C(=O)NCc2ccc(C)cc2OC)CCN1C(C)=O [Example F-370] | < 3 µM
* Cc1cccnc1CNC(=O)CCc1nnc(CCC(C)C)n1C1CC1 [Example F-110] | > 3 µM

====

Measured on: human RORγ (Homo sapiens, UniProt P51449)
Construct: human, NM_005060.3 and from Ser253 to Lys518; expressed in transfected cells; host or cells: CHO cells (transient co-transfection with pG5-Luc reporter)
Sequence (P51449 253-518): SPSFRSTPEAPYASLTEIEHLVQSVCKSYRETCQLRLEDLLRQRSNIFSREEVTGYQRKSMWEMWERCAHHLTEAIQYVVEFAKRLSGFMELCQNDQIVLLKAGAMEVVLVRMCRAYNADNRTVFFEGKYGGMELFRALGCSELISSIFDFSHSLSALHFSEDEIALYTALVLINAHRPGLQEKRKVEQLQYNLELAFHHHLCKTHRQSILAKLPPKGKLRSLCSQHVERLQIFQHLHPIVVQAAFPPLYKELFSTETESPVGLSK
Assay summary: Luciferase reporter gene assay of inhibitory effect against RORγ transcriptional activity (GAL4-hRORγ plasmid in CHO cells)
Assay type: cell-based
Experimental conditions: read-out: LUC EC50 (μM) hRORg
Reported property: EC50

* Cc1ccc(NC(=O)CC(CCCN2C(=O)c3ccccc3C2=O)c2nnc(CCCC(C)C)n2C2CC2)c(C)c1 (racemic) [Example F-281] | < 3 µM
* CC(C)CCc1nnc(CCC(=O)Nc2ccccc2Cl)n1C1CC1 [Example F-93] | > 3 µM
* Cc1c(Br)cccc1NC(=O)CCc1nnc(CCC(C)C)n1C1CC1 [Example F-84] | < 3 µM
* Cc1ccc(NC(=O)[C@H]2C[C@@H](O)C[C@@H]2c2nnc([C@H]3C[C@@H](CC(C)C)C3)n2C2CC2)c(C)c1 [Example F-470] | < 3 µM
* Cc1ccc(NC(=O)CCc2nnc(C3CC(COC(C)C)C3)n2C2CC2)c(C)c1 (single isomer, unassigned) [Example F-478] | > 3 µM
* Cc1ccc(NC(=O)C[C@H](CCC(=O)O)c2noc(-c3cc(C(F)(F)C4CC4)on3)c2C2CC2)c(Cl)c1 [Example E-73] | < 3 µM
* Cc1ccc(NC(=O)C[C@H](CCO)c2nnc(CCC3CCCCC3)n2C2CC2)c(C)c1 [Example F-385] | < 3 µM
* CCn1c(CCC(=O)Nc2cccc(Cl)c2C)nnc1CCC(C)(C)C [Example F-53] | > 3 µM
* CCC(C)CCc1nnc(CCC(=O)Nc2ccc(C)cc2C)n1C1CC1 (racemic) [Example F-236] | > 3 µM
* COc1ccccc1NC(=O)CCc1nnc(CCC(C)C)n1C1CC1 [Example F-73] | > 3 µM
* Cc1c(Cl)cccc1NC(=O)CCc1nnc(CCCC(C)(C)C(=O)O)n1C1CC1 [Example F-232] | > 3 µM
* CC(=O)N1C[C@H](C(=O)Nc2ccc(C)cc2C)[C@@H](c2nnc(C3CN(S(=O)(=O)C(C)C)C3)n2C2CC2)C1 (racemic) [Example F-418] | > 3 µM
* CC(C)CCc1nnc(CCC(=O)N[C@@H](C)c2ccccc2)n1C1CC1 [Example F-62] | > 3 µM
* Cc1c(Cl)cccc1NC(=O)CCc1nnc(C2CCCC(C)C2)n1C1CC1 (stereo not shown) [Example F-135] | > 3 µM
* CCn1c(CCC(=O)NC2CCCCC2)nnc1C1Cc2ccccc2C1 [Example F-21] | > 3 µM
* Cc1c(Cl)cccc1NC(=O)CC(CCCOCc1ccccc1)c1nnc(CCC(C)C)n1C1CC1 (racemic) [Example F-195] | < 3 µM

====

// reported EC50 for each item listed
Measured on: mouse RORγ (Mus musculus)
Construct: mouse, NM_011281.2 and from Ile251 to Lys516; expressed in transfected cells; host or cells: CHO cells (transient co-transfection with pG5-Luc reporter)
Assay summary: Luciferase reporter gene assay of inhibitory effect against RORγ transcriptional activity (GAL4-mRORγ plasmid in CHO cells)
Format: cell-based
Experimental conditions: read-out: LUC EC50 (μM) mRORg
Reported property: EC50

* COC(=O)C(C)(C)CCc1nnc(CCC(=O)Nc2cccc(Cl)c2C)n1C1CC1 | < 3 µM
* Cc1c(Cl)cccc1NC(=O)CCc1nnc(CCC(C)C)n1C1CC1 | < 3 µM
* Cc1c(Cl)cccc1NC(=O)CCc1nnc(CNC(=O)C(C)C)n1C1CC1 | > 3 µM
* CC(=O)N1C[C@H](C(=O)Nc2ccc(C)cc2C)[C@@H](c2nnc(CCC3CCCCC3)n2C2CC2)C1 [Example F-374] | < 3 µM
* CNC(=O)C(C)(C)CCCc1nnc(CCC(=O)Nc2cccc(Cl)c2C)n1C1CC1 | > 3 µM
* CCn1c(CCCC(C)(C)C)nnc1[C@@H]1[C@@H](C(=O)Nc2ccc(C)cc2C)CCN1C(C)=O | < 3 µM
* COc1cc(C)ccc1CNC(=O)C[C@H](NC(C)=O)c1nnc(CCCC(C)C)n1C1CC1 | > 3 µM
* Cc1c(Cl)cccc1NC(=O)CC(CCN)c1nnc(CCCC(C)C)n1C1CC1 (racemic) | > 3 µM
* COc1cc(C)ccc1CNC(=O)CCc1nnc(CCC2(C)CCCCC2)n1C1CC1 | < 3 µM
* CC(=O)N1C[C@H](C(=O)Nc2ccc(C)cc2C)[C@@H](c2nnc(C3CC3CC(C)C)n2C2CC2)C1 (mixture of isomers) [Example F-341] | < 3 µM
* Cc1c(Cl)cccc1NC(=O)CCc1nnc(CCC2CCCN(C(=O)OC(C)(C)C)C2)n1C1CC1 (racemic) | < 3 µM
* COc1cc(C)ccc1CNC(=O)CC(CCO)c1nnc(CCCC(C)C)n1C1CC1 (racemic) | < 3 µM
* Cc1ccc(NC(=O)CCc2nnc(CCCC(C)(C)C)n2C2CC2)c(C)c1 | < 3 µM
* O=C(O)CC[C@@H](CC(=O)Nc1ccc(Cl)cc1Cl)c1noc(-c2cc(C3CCCC3)on2)c1C1CC1 | < 3 µM
* COc1cc(C)ccc1CNC(=O)CC(CCO)c1nnc(CCC2CCCCC2)n1C1CC1 (racemic) | < 3 µM
* Cc1ccc(C2CC2)cc1NC(=O)CCc1nnc(CCC(C)C)n1C1CC1 | > 3 µM

Ref: patent US20160137639A1
